system: Muscarinic acetylcholine receptor M2 (Homo sapiens, UniProt P08172); further: assay procedure not described here
Sequence (P08172 whole entry): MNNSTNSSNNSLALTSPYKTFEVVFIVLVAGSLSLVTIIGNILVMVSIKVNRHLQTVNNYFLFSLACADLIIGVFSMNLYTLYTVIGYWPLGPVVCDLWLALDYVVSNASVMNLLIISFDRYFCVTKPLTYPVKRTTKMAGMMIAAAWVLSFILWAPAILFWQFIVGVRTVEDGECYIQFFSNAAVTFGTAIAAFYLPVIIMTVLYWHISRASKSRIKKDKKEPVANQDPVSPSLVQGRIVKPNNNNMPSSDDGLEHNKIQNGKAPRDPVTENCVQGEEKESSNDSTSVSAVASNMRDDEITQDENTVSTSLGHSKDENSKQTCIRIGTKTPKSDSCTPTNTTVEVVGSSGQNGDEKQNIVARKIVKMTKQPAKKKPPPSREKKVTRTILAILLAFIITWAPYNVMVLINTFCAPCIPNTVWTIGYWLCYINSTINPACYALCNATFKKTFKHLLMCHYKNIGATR
Assay type: functional, cell-based
Where a SMILES comes first, the peptide text is derived from it.

{"molecule": "N=C(N)NC(=O)Cc1c(Cl)cccc1Cl", "AC50": "> 30 µM"}
{"molecule": "CN1CCC(=C2c3ccccc3CC(=O)c3sccc32)CC1", "AC50": "> 10 µM"}
{"molecule": "COC(=O)[C@H]1[C@H]2C[C@@H]3c4[nH]c5ccccc5c4CCN3C[C@H]2C[C@@H](OC(=O)c2cc(OC)c(OC)c(OC)c2)[C@@H]1OC", "AC50": "> 10 µM"}
{"molecule": "COc1ccc(-c2cc(=S)ss2)cc1", "AC50": "> 30 µM"}
{"molecule": "CN1C(=O)CN=C(c2ccccc2F)c2cc([N+](=O)[O-])ccc21", "AC50": "> 10 µM"}
{"molecule": "CCN(C(C)=O)c1cccc(-c2ccnc3c(C#N)cnn23)c1", "AC50": "> 10 µM"}
{"molecule": "C[C@H](Cn1cnc2c(N)ncnc21)OCP(=O)(O)O [TENOFOVIR ANHYDROUS]", "AC50": "> 30 µM"}
{"molecule": "Nc1ccc(S(=O)(=O)Nc2ncccn2)cc1", "AC50": "> 10 µM"}
{"molecule": "COc1ccc(C(Cl)=C(c2ccc(OC)cc2)c2ccc(OC)cc2)cc1", "AC50": "> 30 µM"}
{"molecule": "CO/N=C(\\C(=O)N[C@@H]1C(=O)N2C(C(=O)[O-])=C(C[n+]3ccc(N)n3CCO)CS[C@H]12)c1csc(N)n1", "AC50": "> 30 µM"}
{"molecule": "OCC(O)COc1ccc(Cl)cc1 (centres undefined)", "AC50": "> 10 µM"}
{"molecule": "CCN1C(=O)NC(c2ccccc2)C1=O (centres undefined)", "AC50": "> 30 µM"}
{"molecule": "OCCOCCN1CCN(C(c2ccccc2)c2ccc(Cl)cc2)CC1 (centres undefined) [HYDROXYZINE]", "AC50": "> 10 µM"}
{"molecule": "CC(=O)Oc1ccccc1C(=O)O", "AC50": "> 30 µM"}
{"molecule": "CCOCC(O)COc1ccc(NC(=O)CC[S+](C)C)cc1 (centres undefined)", "AC50": "> 30 µM"}
{"molecule": "CN1CC2c3ccccc3Oc3ccc(Cl)cc3C2C1 (centres undefined)", "AC50": "19 µM"}
{"molecule": "CC(C)/N=c1\\cc2n(-c3ccc(Cl)cc3)c3ccccc3nc-2cc1Nc1ccc(Cl)cc1", "AC50": "> 30 µM"}
{"molecule": "CCC(=O)O[C@H](CC(=O)O)C[N+](C)(C)C [LEVOCARNITINE PROPIONATE]", "AC50": "> 30 µM"}
{"molecule": "CS(=O)(=O)Nc1ccc([N+](=O)[O-])cc1Oc1ccccc1 [NIMESULIDE]", "AC50": "> 30 µM"}
{"molecule": "C[C@H](N)C(=O)N[C@@H](CCC(N)=O)C(=O)O [ALANYL GLUTAMINE] (H-Ala-Gln-OH)", "AC50": "> 30 µM"}
{"molecule": "O=C(O)COC(=O)Cc1ccccc1Nc1c(Cl)cccc1Cl", "AC50": "> 10 µM"}
{"molecule": "Cn1cnc2c(F)c(Nc3ccc(Br)cc3F)c(C(=O)NOCCO)cc21", "AC50": "> 30 µM"}
{"molecule": "CN(C)CCC(O)(c1ccccc1)c1ccccc1Cl (centres undefined)", "AC50": "> 10 µM"}
{"molecule": "C[C@]12CCC(=O)C=C1CC[C@H]1[C@@H]3CC[C@](O)(C(=O)CO)[C@@]3(C)C[C@H](O)[C@@]12F", "AC50": "> 30 µM"}
{"molecule": "C=CC1=C(C(=O)O)N2C(=O)[C@@H](NC(=O)/C(=N\\O)c3csc(N)n3)[C@H]2SC1", "AC50": "> 10 µM"}
{"molecule": "CCN(CC)CCCN(c1ccccc1)C1Cc2ccccc2C1", "AC50": "> 30 µM"}
{"molecule": "CC(=O)Oc1cccc2c1C(=O)c1c(OC(C)=O)cc(C(=O)O)cc1C2=O", "AC50": "12 µM"}
{"molecule": "CN(C)CCOCC(=O)NC12CC3CC(CC(C3)C1)C2", "AC50": "> 30 µM"}
{"molecule": "CCOC(=O)Nc1ccc(NCc2ccc(F)cc2)nc1N", "AC50": "> 30 µM"}
{"molecule": "COc1ccc2c3c1O[C@H]1C(=O)CC[C@H]4[C@@H](C2)N(C)CC[C@]314 [HYDROCODONE]", "AC50": "> 10 µM"}
{"molecule": "CC(NC(C)(C)C)C(=O)c1cccc(Cl)c1 (centres undefined)", "AC50": "> 10 µM"}
{"molecule": "c1cnc2cc3c(cc2n1)[C@@H]1CNC[C@H]3C1", "AC50": "> 30 µM"}
{"molecule": "C#CCN(C)Cc1ccccc1", "AC50": "> 30 µM"}
{"molecule": "Nc1c2c(nc3ccccc13)CCCC2O (centres undefined)", "AC50": "> 30 µM"}
{"molecule": "CC1=C(CC(=O)O)c2cc(F)ccc2/C1=C\\c1ccc([S+](C)[O-])cc1 (centres undefined)", "AC50": "> 10 µM"}
{"molecule": "CC1NCCOC1c1ccccc1 (centres undefined)", "AC50": "> 10 µM"}
{"molecule": "CNCCc1ccccn1", "AC50": "> 30 µM"}
{"molecule": "Cc1c(C)c2c(c(C)c1O)CCC(C)(COc1ccc(CC3SC(=O)NC3=O)cc1)O2 (centres undefined)", "AC50": "> 30 µM"}
{"molecule": "CC1Cc2ccccc2N1NC(=O)c1ccc(Cl)c(S(N)(=O)=O)c1 (centres undefined) [INDAPAMIDE]", "AC50": "> 10 µM"}

----------
system: Kappa-type opioid receptor (Homo sapiens); further: assay procedure not described here
Sequence (P41145 whole entry): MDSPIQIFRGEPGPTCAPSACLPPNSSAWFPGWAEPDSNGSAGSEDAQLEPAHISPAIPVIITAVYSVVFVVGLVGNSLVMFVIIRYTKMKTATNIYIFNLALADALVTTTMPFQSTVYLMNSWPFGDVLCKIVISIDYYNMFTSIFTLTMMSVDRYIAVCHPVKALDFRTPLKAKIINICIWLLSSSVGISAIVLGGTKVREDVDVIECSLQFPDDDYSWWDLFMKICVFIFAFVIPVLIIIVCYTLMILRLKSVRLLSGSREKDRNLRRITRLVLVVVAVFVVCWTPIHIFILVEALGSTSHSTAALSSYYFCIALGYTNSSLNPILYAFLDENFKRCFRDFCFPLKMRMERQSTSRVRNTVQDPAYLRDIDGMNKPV
Below is a list of entries, each paired with its recorded AC50 value.
measurement-kind: AC50

{"compound": "CCOC(=O)C1=C(C)NC(C)=C(C(=O)OC)C1c1cccc(Cl)c1Cl (stereo not drawn) [FELODIPINE]", "meas-value": "8.88 µM"}
{"compound": "CC(=O)OCC1=C(C(=O)O)N2C(=O)[C@@H](NC(=O)Cc3cccs3)[C@H]2SC1 [CEPHALOTHIN]", "meas-value": "> 30 µM"}
{"compound": "CC(=O)[C@@]1(O)CC[C@H]2[C@@H]3C[C@H](C)C4=CC(=O)C=C[C@]4(C)[C@@]3(F)[C@@H](O)C[C@@]21C [FLUOROMETHOLONE]", "meas-value": "> 10 µM"}
{"compound": "O=C(O)c1ccc2nc(-c3cc(Cl)cc(Cl)c3)oc2c1", "meas-value": "> 30 µM"}
{"compound": "COC(=O)c1ccc2c(c1)NC(=O)/C2=C(\\Nc1ccc(N(C)C(=O)CN2CCN(C)CC2)cc1)c1ccccc1 [NINTEDANIB]", "meas-value": "> 30 µM"}
{"compound": "CC(=O)NC[C@H]1CN(c2ccc(N3CCOCC3)c(F)c2)C(=O)O1 [LINEZOLID]", "meas-value": "> 30 µM"}
{"compound": "CN(C)CCc1c[nH]c2ccc(CS(=O)(=O)N3CCCC3)cc12 [ALMOTRIPTAN]", "meas-value": "> 30 µM"}
{"compound": "C[C@]12C=CC(=O)C=C1CC[C@@H]1[C@@H]2[C@@H](O)C[C@@]2(C)[C@H]1CC[C@]2(O)C(=O)CO [PREDNISOLONE]", "meas-value": "> 10 µM"}

----------
system: Type-1 angiotensin II receptor (Homo sapiens); further: assay procedure not described here
Sequence (P30556 whole entry): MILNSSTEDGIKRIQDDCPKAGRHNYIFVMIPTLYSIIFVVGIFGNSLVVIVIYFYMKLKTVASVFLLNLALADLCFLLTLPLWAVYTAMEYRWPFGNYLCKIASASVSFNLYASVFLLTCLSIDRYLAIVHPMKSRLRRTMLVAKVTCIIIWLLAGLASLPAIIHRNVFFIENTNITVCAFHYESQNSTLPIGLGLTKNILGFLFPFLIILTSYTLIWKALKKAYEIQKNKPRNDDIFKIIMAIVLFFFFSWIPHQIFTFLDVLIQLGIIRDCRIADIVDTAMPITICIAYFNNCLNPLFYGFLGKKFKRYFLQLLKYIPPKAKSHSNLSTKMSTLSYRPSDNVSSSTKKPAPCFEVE
AC50 values, listed per item

{"molecule": "CN1CCC(=C2c3ccccc3CC(=O)c3sccc32)CC1", "AC50": "> 10 µM"}
{"molecule": "CC(C)C[C@H](NC(=O)[C@H](Cc1ccccc1)NC(=O)c1cnccn1)B(O)O", "AC50": "> 30 µM"}
{"molecule": "Nc1cc(N2CCCCC2)nc(N)[n+]1[O-]", "AC50": "> 30 µM"}
{"molecule": "CCCCC[C@H](O)CC[C@@H]1[C@H]2Cc3cccc(OCC(=O)O)c3C[C@H]2C[C@H]1O", "AC50": "> 30 µM"}
{"molecule": "CCC1(c2ccccc2)C(=O)NCNC1=O", "AC50": "> 30 µM"}
{"molecule": "CS(=O)(=O)NC(=O)CCC/C=C\\C[C@H]1C(=O)C[C@@H](O)[C@@H]1/C=C/[C@@H](O)COc1ccccc1", "AC50": "> 30 µM"}
{"molecule": "CC(=O)OCC(=O)[C@@]1(O)CC[C@H]2[C@@H]3CCC4=CC(=O)CC[C@]4(C)[C@@]3(F)[C@@H](O)C[C@@]21C [FLUDROCORTISONE ACETATE]", "AC50": "> 30 µM"}
{"molecule": "CC(=O)SCC(Cc1ccccc1)C(=O)NCC(=O)OCc1ccccc1 (configuration not stated)", "AC50": "> 30 µM"}
{"molecule": "Nc1ccc(S(=O)(=O)Nc2ncccn2)cc1", "AC50": "> 10 µM"}
{"molecule": "O=C(c1ccccc1)c1ccc2n1CCC2C(=O)O (configuration not stated)", "AC50": "> 10 µM"}
{"molecule": "CO/N=C(\\C(=O)N[C@@H]1C(=O)N2C(C(=O)O)=C(CSc3nc(C)c(CC(=O)O)s3)CS[C@H]12)c1csc(N)n1", "AC50": "> 30 µM"}
{"molecule": "CS(=O)(=O)Nc1ccc([N+](=O)[O-])cc1Oc1ccccc1 [NIMESULIDE]", "AC50": "20 µM"}
{"molecule": "COc1ccc(-c2cc(=S)ss2)cc1", "AC50": "9.3 µM"}
{"molecule": "C[C@H](CCC(=O)O)[C@H]1CC[C@H]2[C@@H]3[C@H](O)C[C@@H]4C[C@H](O)CC[C@]4(C)[C@H]3CC[C@]12C", "AC50": "> 30 µM"}
{"molecule": "CC(C)(C)NCC(O)COc1cccc2c1CC(O)C(O)C2 (configuration not stated)", "AC50": "> 10 µM"}
{"molecule": "CO/N=C(\\C(=O)N[C@@H]1C(=O)N2C(C(=O)[O-])=C(C[n+]3ccc(N)n3CCO)CS[C@H]12)c1csc(N)n1", "AC50": "> 30 µM"}
{"molecule": "CC1CC(OC(=O)C(O)c2ccccc2)CC(C)(C)C1 (configuration not stated) [CYCLANDELATE]", "AC50": "> 10 µM"}

Value source: ChEMBL document CHEMBL5291721
